# Tested on: HEP-G2 cells
# test details: cells
# settings: Homo sapiens, HepG2, read-out: HEP-G2 Emax (μM), HEP-G2 cells, concentration at which Emax is achieved (CEmax)
readout: log10 of EC (Emax) (log10 of the value in µM)
# values: log10(EC (Emax)), units µM

In the examples that follow, each entry is paired with its recorded log10 of EC (Emax).
compound="CCCCCCCC[P+](CCCCCCCC)(CCCCCCCC)Cc1cc(C(C)(C)C)c(O)c(C(C)(C)C)c1.[Br-] [Example 14]" readout="log10 of EC (Emax)" meas_value=1.00
compound="CC(C)(C)c1cc(C[P+](c2ccccc2)(c2ccccc2)c2ccccc2)cc(C(C)(C)C)c1O [Example 11]" readout="log10 of EC (Emax)" meas_value=0.48
compound="Cc1c(Br)cc(C(C)C)c(O)c1C(=O)Nc1ccc([N+](=O)[O-])cc1Cl [Example 41]" readout="log10 of EC (Emax)" meas_value=1.48
compound="Cc1c(Br)cc(C(C)(C)C)c(O)c1C(=O)Nc1cc(C(F)(F)F)cc(C(F)(F)F)c1Br [Example 60]" readout="log10 of EC (Emax)" meas_value=-0.52

# log10 of EC (Emax) lookup, item O=C(Nc1ccc([N+](=O)[O-])c(C(F)(F)F)c1)c1ccc(F)c(C(F)(F)F)c1 [Example 67]
1.48

# lookup: log10 of EC (Emax) of CC(C)(C)c1cc(/C=C(\C#N)c2ccc(OC(F)(F)F)cc2)cc(C(C)(C)C)c1O [Example 80]
2.00

// returns reported log10 of EC (Emax) for input Cc1c(Br)cc(C(C)C)c(O)c1C(=O)Nc1ccc([N+](=O)[O-])cc1C(F)(F)F [Example 57]
1.00

I'd like to know its log10 of EC (Emax). The compound in question is Cc1cc(C(=O)Nc2ccc([N+](=O)[O-])cc2Cl)c(O)c(C(C)(C)C)c1 [Example 45]
0.48

====

# Test system: HEP-G2 cells
# test details: cells
# settings: Homo sapiens, HepG2, read-out: HEP-G2 Emax (μM), HEP-G2 cells, concentration at which Emax is achieved (CEmax)
Measured EC (Emax), listed per entry.

molecule="CCc1cc(C#N)cc2c(C)c(C)[nH]c12 [Example 22, 2,3-Dimethyl-5-Cyano-7-Ethylindole]" meas_value="1000 µM"
molecule="CC(C)(C)c1cc(/C=C(\\C#N)c2ccncc2)cc(C(C)(C)C)c1O [Example 78]" meas_value="10 µM"
molecule="N#Cc1cc(NC(=O)c2cccc(C(F)(F)F)c2)ccc1Sc1ccccc1 [Example 24]" meas_value="100 µM"
molecule="Cc1c(Br)cc(C(C)(C)C)c(O)c1C(=O)Nc1ccc([N+](=O)[O-])cc1C(F)(F)F [Example 58]" meas_value="0.1 µM"
molecule="Clc1ccc(-c2cc3ccccc3[nH]2)cc1 [Example 20, 2-(4-Chlorophenyl)-Indole]" meas_value="300 µM"

Request the reported EC (Emax) associated with Cc1ccc(C(C)C)c(C(=O)Nc2ccc([N+](=O)[O-])cc2Cl)c1O [Example 46]
10 µM

I would be grateful if you could share the reported EC (Emax) for CC(C)(C)c1cc(C[P+](C2CCCCC2)(C2CCCCC2)C2CCCCC2)cc(C(C)(C)C)c1O [Example 12] .
10 µM

====

# System: FSK-4 cells
# test details: Assay (IV): Glucose utilisation in FSK-4 cells
# Format: cell-based
# settings: FSK-4 cells, maximal efficacy relative to FCCP; read-out: FSK4 Emax (% of FCCP)
readout: Emax (%)
Form entry: value (%) — number only.

Look over these answered cases.
molecule="Clc1ccc(-c2cc3ccccc3[nH]2)cc1 [Example 20, 2-(4-Chlorophenyl)-Indole]" study_system="FSK-4 cells" readout=Emax meas_value=90
molecule="Cc1c(Cl)cc(C(C)(C)C)c(O)c1C(=O)Nc1ccc(Cl)c(C(F)(F)F)c1 [Example 42]" study_system="FSK-4 cells" readout=Emax meas_value=75
molecule="Cc1c(Cl)cc(C(C)(C)C)c(O)c1C(=O)Nc1ccc([N+](=O)[O-])cc1Cl [Example 5]" study_system="FSK-4 cells" readout=Emax meas_value=100
molecule="N#CC(C#N)=Cc1c(Cl)[nH]c2ccccc12 [Example 34]" study_system="FSK-4 cells" readout=Emax meas_value=90
molecule="Cc1c(Cl)cc(C(C)(C)C)c(O)c1C(=O)Nc1cc(C(F)(F)F)ccc1F [Example 48]" study_system="FSK-4 cells" readout=Emax meas_value=85
molecule="N#CC(C#N)=Cc1c(Br)[nH]c2ccccc12 [Example 97]" study_system="FSK-4 cells" readout=Emax meas_value=55

Using the record for CC(C)(C)c1cc(/C=C(\C#N)c2ccc([N+](=O)[O-])cc2)cc(C(C)(C)C)c1O [Example 77] , report its Emax.
110

For Cc1c(Br)cc(C(C)(C)C)c(O)c1C(=O)Nc1ccc([N+](=O)[O-])cc1C(F)(F)F [Example 58] , what is its reported Emax?
100

For the molecule shown here, Cc1c(Cl)cc(C(C)(C)C)c(O)c1C(=O)Nc1ccc(C#N)c(C(F)(F)F)c1 [Example 43] , give the reported Emax.
80

Any idea what its Emax is? The molecule is Cc1c(Br)cc(C(C)(C)C)c(O)c1C(=O)Nc1cc(C(F)(F)F)ccc1Cl [Example 52]
75

====

# Test system: FSK-4 cells
# test details: Assay (IV): Glucose utilisation in FSK-4 cells
# Format: cell-based
# settings: FSK-4 cells, glucose utilisation, 24 hours incubation; read-out: FSK4 EC50
We begin with a simple list: items and their reported EC50.

compound="N#CC(C#N)=Cc1c(Cl)[nH]c2ccccc12 [Example 34]" study_system="FSK-4 cells" readout=EC50 meas_value="400 nM"
compound="Cc1[nH]c2ccc(Br)cc2c1C=C(C#N)C#N [Example 99]" study_system="FSK-4 cells" readout=EC50 meas_value="1700 nM"
compound="CC(C)(C)c1cc(/C=C(\\C#N)c2ccc(OC(F)(F)F)cc2)cc(C(C)(C)C)c1O [Example 80]" study_system="FSK-4 cells" readout=EC50 meas_value="18000 nM"
compound="Cc1[nH]c2c(Br)cccc2c1C=C(C#N)C#N [Example 98]" study_system="FSK-4 cells" readout=EC50 meas_value="6600 nM"
compound="CC(C)(C)c1cc(/C=C(\\C#N)C(=O)Nc2ccc(Cl)cc2)cc(C(C)(C)C)c1O [Example 83]" study_system="FSK-4 cells" readout=EC50 meas_value="1100 nM"

Form field: reported EC50 of Cc1c(Cl)cc(C(C)(C)C)c(O)c1C(=O)Nc1ccc([N+](=O)[O-])cc1Cl [Example 5]
100 nM

====

# Test system: HEP-G2 cells
# test details: cells
# settings: human, 3 h
readout: HEP-G2 Tox

Use these answered entries as a reference point.
smiles_input=CC(C)(C)c1cc(/C=N/C(C#N)=C(\N)C#N)cc(C(C)(C)C)c1O meas_value="Tox 0.1 mM"
smiles_input=CCCC[P+](CCCC)(CCCC)Cc1cc(C(C)(C)C)c(O)c(C(C)(C)C)c1.[Br-] meas_value="Tox 0.03 mM"
smiles_input=CC(C)(C)c1cc(C[P+](C2CCCCC2)(C2CCCCC2)C2CCCCC2)cc(C(C)(C)C)c1O meas_value="Tox 0.03 mM"
smiles_input=CC(C)(C)c1cc(/C=C(\C#N)c2ccc(OC(F)(F)F)cc2)cc(C(C)(C)C)c1O meas_value="Tox 0.3 mM"
smiles_input=CC(=C(C#N)C#N)c1cc(C(C)(C)C)c(O)c(C(C)(C)C)c1 meas_value="Tox 0.3 mM"
smiles_input=CC(C)(C)c1cc(C[P+](c2ccccc2)(c2ccccc2)c2ccccc2)cc(C(C)(C)C)c1O meas_value="Tox 0.03 mM"
smiles_input=Cc1c(Cl)cc(C(C)(C)C)c(O)c1C(=O)Nc1cc(C(F)(F)F)cc(C(F)(F)F)c1 meas_value="Tox 0.1 mM"
smiles_input=Cc1c(Cl)cc(C(C)(C)C)c(O)c1C(=O)Nc1cc(C(F)(F)F)ccc1F meas_value="0.1 mM"

Now consider a different compound.
// HEP-G2 Tox lookup, key: "CC(C)(C)c1cc(/C=C(\C#N)c2cc(C(F)(F)F)cc(C(F)(F)F)c2)cc(C(C)(C)C)c1O"
Tox 0.3 mM

====

# System: HEP-G2 cells
# test details: cells
# settings: read-out: HEP-G2 EC50; HEP-G2 cells, glucose utilisation, 3 hours incubation
readout: EC50 (nM)
Field: numeric (nM). Do not append units.

Any idea what its EC50 is? The compound is "O=C(Nc1ccc([N+](=O)[O-])cc1Cl)c1cccc(-c2ccccc2)c1O"
1400

====

# Test system: HEP-G2 cells
# test details: cells
# settings: Homo sapiens, HepG2, 3 h, read-out: HEP-G2 EC50, HEP-G2 cells, glucose utilisation, 3 hours incubation
readout: pEC50
# pEC50 = -log10(concentration in molar units)

Worked cases, pEC50 given:
compound="Cc1cc(C(C#N)c2ccc(Cl)cc2)c(Cl)cc1NC(=O)c1c(C)c(Br)cc(C(C)(C)C)c1O (centres unmarked)" study_system="HEP-G2 cells" meas_value=5.18
compound=CCCC[P+](CCCC)(CCCC)Cc1cc(C(C)(C)C)c(O)c(C(C)(C)C)c1.[Br-] study_system="HEP-G2 cells" meas_value=5.54
compound=N#CC(C#N)=Cc1c(Cl)[nH]c2ccccc12 study_system="HEP-G2 cells" meas_value=5.85
compound=Cc1c(Cl)cc(C(C)(C)C)c(O)c1C(=O)Nc1cc(C(F)(F)F)ccc1F study_system="HEP-G2 cells" meas_value=5.46
compound=O=C(Nc1cc(C(F)(F)F)cc(C(F)(F)F)c1)c1ccc(C(F)(F)F)c(F)c1 study_system="HEP-G2 cells" meas_value=5.37
compound=Cc1c(Br)cc(C(C)C)c(O)c1C(=O)Nc1ccc([N+](=O)[O-])cc1C(F)(F)F study_system="HEP-G2 cells" meas_value=6.51
compound=N#CC(C#N)=Cc1c[nH]c2ccc(Br)cc12 study_system="HEP-G2 cells" meas_value=4.89

Request the reported pEC50 associated with "Cc1c(Br)cc(C(C)(C)C)c(O)c1C(=O)Nc1ccc(C(C)C)cc1C(F)(F)F"
4.85
